experimental system: bact sCRFR2α (mouse soluble CRF receptor type 2α, amino acids 20-143, purified from E. coli) (mouse)
assay overview: radioreceptor assay, displacement of [125I-DTyr0]-astressin from purified sCRFR2α
pKi: −log10 of the molar value. Where no end group is shown, it is not given here.
Measured pKi accompanies every entry in the list below.
endpoint: pKi

>>> recorded_measurement("DDPPLSIDLTFHLLRTLLELARTQSQRERAEQNRIIFDSV (peptide, UniProt P55090 81-120, looked up) [rUcn1 (urocortin 1)]")
8.24
>>> recorded_measurement("SEEPPISLDLTFHLLREVLEMARAEQLAQQAHSNRKLMEII (ends and bridges not checked) [corticotropin releasing factor (CRF)]")
7.83
>>> recorded_measurement("VILSLDVPIGLLRILLEQARYKAARNQAATNAQILAHV (peptide, UniProt Q99ML8 73-110, looked up) [mUcn2 (urocortin 2)]")
6.94
